Assayed System: D168A mutant HCV NS3 serine protease domain (Hepatitis C virus genotype 1b, UniProt Q9WMX2, D1194A)
Construct: A DNA fragment encoding residues Ala^1-Ser^181 of the HCV NS3 protease (GenBank CAB46913); hexa-histidine (C)
Protocol Description: FRET enzyme assay, Ki
Assay Readout: pKi
pKi (log units): -log10 of the concentration in mol/L.

q: Which value of pKi has been reported for CCC[C@H](NC(=O)C1[C@H]2CCC[C@H]2CN1C(=O)[C@@H](NC(=O)[C@@H](NC(=O)c1cnccn1)C1CCCCC1)C(C)(C)C)C(=O)C(=O)NC1CC1 (stereo partly shown) [VX-950] in the records?
a: 6.82

====

Assayed System: A156S mutant HCV NS3 serine protease domain (Hepatitis C virus genotype 1b, UniProt Q9WMX2, A1182S)
Construct: A DNA fragment encoding residues Ala^1-Ser^181 of the HCV NS3 protease (GenBank CAB46913); hexa-histidine (C)
Protocol Description: FRET enzyme assay, Ki
Assay Readout: Ki (nM)
State the answer as a number, implicitly in nM.

q: Bench note: what Ki did CCC[C@H](NC(=O)C1[C@H]2CCC[C@H]2CN1C(=O)[C@@H](NC(=O)[C@@H](NC(=O)c1cnccn1)C1CCCCC1)C(C)(C)C)C(=O)C(=O)NC1CC1 (stereo partly shown) show?
a: 2900

====

Assayed System: A156V mutant HCV NS3 serine protease domain (Hepatitis C virus genotype 1b, UniProt Q9WMX2, A1182V)
Construct: A DNA fragment encoding residues Ala^1-Ser^181 of the HCV NS3 protease (GenBank CAB46913); hexa-histidine (C)
Protocol Description: FRET enzyme assay, Ki
Assay Readout: pKi
Note on units: pKi is unitless, being -log10 of a concentration expressed in mol/L.

q: Any idea what pKi was measured for CCC[C@H](NC(=O)C1[C@H]2CCC[C@H]2CN1C(=O)[C@@H](NC(=O)[C@@H](NC(=O)c1cnccn1)C1CCCCC1)C(C)(C)C)C(=O)C(=O)NC1CC1 (stereo partly shown) ?
a: 4.48

====

Assayed System: D168V mutant HCV NS3 serine protease domain (Hepatitis C virus genotype 1b, UniProt Q9WMX2, D1194V)
Construct: A DNA fragment encoding residues Ala^1-Ser^181 of the HCV NS3 protease (GenBank CAB46913); hexa-histidine (C)
Protocol Description: FRET enzyme assay, Ki
Assay Readout: Ki (nM)
Your answer should be a plain number; it is taken to be in nM.

q: Which Ki is listed for CCC[C@H](NC(=O)C1[C@H]2CCC[C@H]2CN1C(=O)[C@@H](NC(=O)[C@@H](NC(=O)c1cnccn1)C1CCCCC1)C(C)(C)C)C(=O)C(=O)NC1CC1 (stereo partly shown) ?
a: 43

====

Assayed System: A156T mutant HCV NS3 serine protease domain (Hepatitis C virus genotype 1b, UniProt Q9WMX2, A1182T)
Construct: A DNA fragment encoding residues Ala^1-Ser^181 of the HCV NS3 protease (GenBank CAB46913); hexa-histidine (C); made in house; host or cells: E. coli
Protocol Description: FRET enzyme assay, Ki
Assay type: biochemical
Assay Readout: Ki (µM)
Give the value in µM but do not write µM after it.

q: Need Ki of CCC[C@H](NC(=O)C1[C@H]2CCC[C@H]2CN1C(=O)[C@@H](NC(=O)[C@@H](NC(=O)c1cnccn1)C1CCCCC1)C(C)(C)C)C(=O)C(=O)NC1CC1 (stereo partly shown) [VX-950] , thanks.
a: 9.9
